Measured melting point, listed per entry.

C[Si](C)(C)c1cccc(Cl)c1C(=O)O	129 to 131 °C
CCN(CC)c1ccc(C(C)=O)cc1S(N)(=O)=O	103 to 105 °C
O=C(Nc1ccccc1N1CCc2ccccc21)c1ccco1	99 to 102 °C

Field request: melting point | item: "O=C(Cn1cnnn1)OCc1ccccc1"
69 to 72 °C

Sample "CCOc1c(C(N)=O)n(-c2ccccc2)c2ccc(OC)cc12" — what was its melting point?
143 to 144 °C

# melting point lookup, item "COc1ccccc1N1CC(=O)Nc2c(C(N)=O)nc(-c3cccc(O)c3)nc21"
336 to 338 °C

====

Reported melting point is given for each of the following molecules.

The cases that follow already have their melting point on record.
COC(=O)CCn1cc(Cc2cccnc2)c2c(CCC(=O)OC(C)(C)C)cccc21	80 to 82 °C
CCCCc1nc2cc(F)ccc2n1Cc1ccc(C(=O)O)cc1	202 to 204 °C
COc1cc(OC)cc(N2CCN(C(=O)N(CC3CC3)c3cc4ccccc4nc3OC)CC2)c1	118 to 120 °C
CCn1ncc2c1ncc1c(SC)nc3cc(C)nn3c12	168 to 169 °C
COc1cc(OCCN2CCOCC2)ccc1/C=C/c1cc(/C=C/c2ccc3cc[nH]c3c2)n[nH]1	113 to 122 °C

Give its melting point value. Item: Cc1cccc(NC(=O)NC2CN(C(=O)C3CCCCC3)c3ccccc3N(CC(=O)c3ccccc3C)C2=O)c1 (stereo not given)
148 to 151 °C

Using the record for CCc1cn(C2CC(O)C(CCC(O)C(C)Oc3ccc(Cl)cc3Cl)O2)c(=O)[nH]c1=O (mixture of isomers) , report its melting point.
108 to 111 °C

====

# melting point annotations

O=c1c(Cl)c(Cl)cnn1-c1ccc(Cl)cc1F	158 °C

Request the reported melting point associated with "CC(C)c1oc(-c2ccc(F)cc2)nc1CC(=O)O"
137 to 138 °C

I would be grateful if you could share the reported melting point for "CC(C)(NCCONC(C)(C)C(=O)CCn1ccnc1[N+](=O)[O-])C(=O)CCn1ccnc1[N+](=O)[O-]" .
90 to 92 °C

// query melting point value for entry CCCNC(=O)NS(=O)(=O)c1cc2c(cc1OC)OCC(NC(=O)c1cc(Cl)ccc1OC)C2 (stereo not given)
203 to 205 °C

Which melting point is reported for this compound? "N#Cc1ccc(C(=O)NC(=S)NC2CC2)cc1"
151 to 152 °C

Given the compound O=Cc1ccc(OCCC2Oc3ccccc3N(Cc3cccc(Cl)c3)C2=O)cc1 (stereo not given) , what is its reported melting point?
130 to 131 °C

====

This section presents compounds with their documented melting point values.

Solved cases below.
O=[N+]([O-])c1ccc2c(ccn2-c2cccnc2)c1	164 to 165 °C
Cc1c(C(=O)O)nc2c(=O)[nH]c3cc(S(C)(=O)=O)ccc3n12	228 °C
CCn1nc(Cl)c(CS(=O)(=O)C2=NOC(C)(C)C2)c1Cl	105 to 107 °C
O=C(O)CCCN(C(=O)c1ccccc1O)C(c1ccccc1)c1ccccc1	162 to 163 °C
Oc1ccc(C2CC(c3ccccc3)=NN2c2ccccc2)cc1 (stereo not given)	144 to 145 °C
Cc1ccc2c(c1O)NC(S(=O)O)C1CC(C=CC(N)=O)=CN1C2=O (stereo not given)	252 to 255 °C
Fc1ccc2sc(COc3cccc(CBr)c3)nc2c1	99 to 100 °C
CCC1=C(C)C(=C(C#N)C#N)C(C)=C(CC)O1	64 to 65 °C
CN1CC=C(C(=O)N2c3ccccc3NC(=O)c3cscc32)CC1	210 to 212 °C

Next up:
Reported melting point for "COc1ccc(-c2ccc(C(=O)CCC(=O)O)cc2)cc1" : what is it?
197 to 199 °C
